Hello, the source for this data is patent US20250154109A1, in case you need it.

# Target desc: human Nav1.8 (Homo sapiens, UniProt Q9Y5Y9)
# Sequence (Q9Y5Y9 whole entry): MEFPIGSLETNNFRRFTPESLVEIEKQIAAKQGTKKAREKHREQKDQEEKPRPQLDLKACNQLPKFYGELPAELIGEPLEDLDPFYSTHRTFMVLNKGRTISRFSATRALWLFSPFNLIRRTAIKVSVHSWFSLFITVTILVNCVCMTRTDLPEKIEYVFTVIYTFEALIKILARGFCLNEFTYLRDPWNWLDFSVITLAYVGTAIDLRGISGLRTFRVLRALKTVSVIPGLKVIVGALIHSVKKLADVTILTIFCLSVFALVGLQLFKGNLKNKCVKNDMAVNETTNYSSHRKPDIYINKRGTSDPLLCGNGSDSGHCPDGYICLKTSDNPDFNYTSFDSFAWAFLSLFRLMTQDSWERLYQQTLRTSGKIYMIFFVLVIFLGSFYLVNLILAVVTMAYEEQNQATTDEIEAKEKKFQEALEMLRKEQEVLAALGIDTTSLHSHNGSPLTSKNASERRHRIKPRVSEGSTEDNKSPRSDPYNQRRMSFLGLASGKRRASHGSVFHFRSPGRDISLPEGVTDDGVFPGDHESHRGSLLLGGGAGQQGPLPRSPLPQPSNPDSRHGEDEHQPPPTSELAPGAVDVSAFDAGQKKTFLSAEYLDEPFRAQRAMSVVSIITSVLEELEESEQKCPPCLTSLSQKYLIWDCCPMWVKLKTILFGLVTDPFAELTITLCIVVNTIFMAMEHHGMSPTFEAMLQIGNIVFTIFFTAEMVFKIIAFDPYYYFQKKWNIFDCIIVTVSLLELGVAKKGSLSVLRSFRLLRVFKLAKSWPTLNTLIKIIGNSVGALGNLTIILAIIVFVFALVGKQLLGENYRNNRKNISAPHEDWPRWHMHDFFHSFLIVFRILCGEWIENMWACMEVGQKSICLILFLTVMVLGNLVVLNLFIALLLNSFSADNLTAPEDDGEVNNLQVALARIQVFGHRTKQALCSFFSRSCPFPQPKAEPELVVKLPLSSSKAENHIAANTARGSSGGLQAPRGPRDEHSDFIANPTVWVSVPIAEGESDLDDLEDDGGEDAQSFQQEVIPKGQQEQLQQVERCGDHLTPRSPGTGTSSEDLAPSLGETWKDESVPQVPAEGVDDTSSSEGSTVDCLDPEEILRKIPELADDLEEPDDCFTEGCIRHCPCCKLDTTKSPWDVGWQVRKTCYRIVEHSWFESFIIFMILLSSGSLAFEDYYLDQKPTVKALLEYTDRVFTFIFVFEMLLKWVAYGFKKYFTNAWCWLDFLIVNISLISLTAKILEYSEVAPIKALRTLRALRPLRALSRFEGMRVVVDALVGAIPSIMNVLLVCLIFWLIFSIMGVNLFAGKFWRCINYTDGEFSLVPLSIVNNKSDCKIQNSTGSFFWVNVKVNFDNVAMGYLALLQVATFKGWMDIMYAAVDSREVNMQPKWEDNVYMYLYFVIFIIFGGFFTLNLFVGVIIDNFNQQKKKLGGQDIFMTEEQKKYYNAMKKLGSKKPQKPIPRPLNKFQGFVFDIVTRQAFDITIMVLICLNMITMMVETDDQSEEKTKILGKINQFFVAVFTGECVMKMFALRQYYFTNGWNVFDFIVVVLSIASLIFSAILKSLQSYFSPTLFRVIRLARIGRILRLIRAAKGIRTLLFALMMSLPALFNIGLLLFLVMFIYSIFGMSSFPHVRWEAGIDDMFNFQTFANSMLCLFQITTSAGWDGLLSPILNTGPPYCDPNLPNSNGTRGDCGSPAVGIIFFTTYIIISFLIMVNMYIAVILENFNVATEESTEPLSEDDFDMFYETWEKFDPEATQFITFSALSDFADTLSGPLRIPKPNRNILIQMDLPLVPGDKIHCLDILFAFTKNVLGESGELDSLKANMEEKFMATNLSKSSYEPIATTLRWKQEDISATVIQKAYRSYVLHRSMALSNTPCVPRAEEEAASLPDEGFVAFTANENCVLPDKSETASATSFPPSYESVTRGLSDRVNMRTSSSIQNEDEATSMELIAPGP
# Experimental details: SyncroPatch384PE assay (automated patch clamp)
# Format: cell-based
# Test conditions: inactivated state block (P2 measurement), human Nav1.8/b3 CHO cells, read-out: P2 IC50
# Description: Compounds were tested on recombinant human Nav1.8/b3 stably transfected CHO cells using the SyncroPatch384PE system (Nanion Technologies), an automated patch clamp device. […] Whole cell patch clamp recordings were conducted according to Nanion's standard procedure for SyncroPatch384PE®. […] The potency of the compounds was assessed on two read-outs, resting state block (P1 measurement) or inactivated state block (P2 measurement) to obtain IC50 values. […]
Readout name: IC50

{"Compound": "CNCC(=O)N=[S@](C)(=O)c1cccc(NC(=O)c2c(N3CCCC(F)(F)CC3)ccc(-c3cnn(C)c3)c2C)c1 [Example 175]", "Measurement": "5 to 50 nM"}
{"Compound": "Cc1c(-c2cnn(C)c2)cnc(N2CCCC(F)(F)CC2)c1C(=O)Nc1cccc([S@@](C)(=O)=NC(=O)[C@H](C)O)c1 [Example 231]", "Measurement": "5 to 50 nM"}
{"Compound": "Cc1c(Br)cnc(N2CCCC(F)(F)CC2)c1C(=O)Nc1cccc([S@@](C)(=N)=O)c1 [Example 145]", "Measurement": "≤ 5 nM"}
{"Compound": "Cc1c(-c2cccc(C#N)c2)cnc(N2CCCC(F)(F)CC2)c1C(=O)Nc1cccc(S(C)(=N)=O)c1 (stereo not shown) [Example 91]", "Measurement": "5 to 50 nM"}
{"Compound": "Cc1c(C(F)(F)F)cnc(N2CCCC(F)(F)CC2)c1C(=O)Nc1cccc([S@@](C)(=O)=NC(=O)CN2CC(F)(F)C2)c1 [Example 202]", "Measurement": "≤ 5 nM"}
{"Compound": "C[S@](=N)(=O)c1cccc(NC(=O)c2cc(C(F)(F)F)nnc2N2CCCC(F)(F)CC2)c1 [Example 19]", "Measurement": "100 to 200 nM"}
{"Compound": "Cc1c(N2CC3(COC3)C2)cnc(N2CCCC(F)(F)CC2)c1C(=O)Nc1cccc([S@@](C)(=N)=O)c1 [Example 90]", "Measurement": "100 to 200 nM"}
{"Compound": "Cc1c(C2CNC2)cnc(N2CCCC(F)(F)CC2)c1C(=O)Nc1cccc(S(C)(=N)=O)c1 (stereo not shown) [Example 173]", "Measurement": "100 to 200 nM"}
{"Compound": "Cc1c(C(F)(F)F)cnc(N2CCCC(F)(F)CC2)c1C(=O)Nc1cccc([S@@](C)(=N)=O)c1 [Example 163]", "Measurement": "≤ 5 nM"}
{"Compound": "Cc1c(-c2cnn(C)c2)ccc(N2CCCC(F)(F)CC2)c1C(=O)Nc1cccc([S@](C)(=N)=O)c1 [Example 78]", "Measurement": "> 200 nM"}
{"Compound": "C[S@@+]([O-])c1cc(NC(=O)c2cc(Cl)c(C(F)(F)F)cc2N2CCCC(F)(F)CC2)ccc1F [Example 206]", "Measurement": "≤ 5 nM"}
{"Compound": "Cc1c(C(F)(F)F)nnc(N2CCCC(F)(F)CC2)c1C(=O)Nc1cccc([S@](C)(=N)=O)c1 [Example 28]", "Measurement": "5 to 50 nM"}
{"Compound": "Cc1c(Cl)c(-c2cnn(C)c2)nc(N2CCCC(F)(F)CC2)c1C(=O)Nc1cccc([S@](C)(=N)=O)c1 [Example 162]", "Measurement": "≤ 5 nM"}
{"Compound": "Cc1c(C#N)c(C(F)(F)F)nc(N2CCCC(F)(F)CC2)c1C(=O)Nc1cccc([S@@](C)(=O)=NCCN)c1 [Example 196]", "Measurement": "≤ 5 nM"}
{"Compound": "Cc1nc(N2CCCC(F)(F)CC2)c(C(=O)Nc2ccnc(S(C)(=N)=O)c2)cc1C(F)(F)F (stereo not shown) [Example 101]", "Measurement": "≤ 5 nM"}
{"Compound": "Cc1nc(N2CCOCC2)nc(N2CCCC(F)(F)CC2)c1C(=O)Nc1cccc([S@](C)(=N)=O)c1 [Example 155]", "Measurement": "> 200 nM"}
{"Compound": "Cc1c(C(F)(F)F)cnc(N2CCCC(F)(F)CC2)c1C(=O)Nc1ccnc([S@](C)(=N)=O)c1 (single isomer, unassigned) [Example 189]", "Measurement": "≤ 5 nM"}
{"Compound": "Cc1c(-c2ccc(C(F)(F)F)cc2)cnc(N2CCCC(F)(F)CC2)c1C(=O)Nc1cccc([S@](C)(=N)=O)c1 [Example 169]", "Measurement": "≤ 5 nM"}
{"Compound": "COc1ccc(-c2nnc(N3CCCC(F)(F)CC3)c(C(=O)Nc3cccc([S@](C)(=N)=O)c3)c2C)cc1 (single isomer, unassigned) [Example 138]", "Measurement": "100 to 200 nM"}
{"Compound": "Cc1c(C#N)cnc(N2CCCC(F)(F)CC2)c1C(=O)Nc1cccc(S(C)(=N)=O)c1 (stereo not shown) [Example 97]", "Measurement": "5 to 50 nM"}
{"Compound": "CS(=N)(=O)c1cccc(NC(=O)c2nnc(C(F)(F)F)cc2N2CCCC(F)(F)CC2)c1 (stereo not shown) [Example 21]", "Measurement": "> 200 nM"}
{"Compound": "Cc1c(C#N)nnc(N2CCCC(F)(F)CC2)c1C(=O)Nc1cccc([S@](C)(=N)=O)c1 [Example 139]", "Measurement": "100 to 200 nM"}
{"Compound": "Cc1c(-c2cnn(C)c2)cnc(N2CCCC(F)(F)CC2)c1C(=O)Nc1cccc([S@@](C)(=O)=NC(=O)C2COC2)c1 [Example 54]", "Measurement": "5 to 50 nM"}
{"Compound": "C[S@@](=N)(=O)c1cccc(NC(=O)c2cc(Cl)c(C(F)(F)F)cc2N2CCO[C@@H](C(F)(F)F)C2)c1 [Example 216]", "Measurement": "50 to 100 nM"}
{"Compound": "C[S@+]([O-])c1cc(NC(=O)c2cc(Cl)c(C(F)(F)F)cc2N2CCCC(F)(F)CC2)ccc1F [Example 205]", "Measurement": "≤ 5 nM"}
{"Compound": "CNCC(=O)N=[S@](C)(=O)c1cccc(NC(=O)c2c(N3CCCC(F)(F)CC3)ncc(-c3ccc(Cl)cc3)c2C)c1 [Example 68]", "Measurement": "≤ 5 nM"}
{"Compound": "C[S@](=N)(=O)c1cccc(NC(=O)c2c(N3CCCC(F)(F)CC3)cnc(C(F)(F)F)c2Cl)c1 [Example 207]", "Measurement": "5 to 50 nM"}
{"Compound": "Cc1c(C(F)(F)F)nnc(N2CCCCCC2)c1C(=O)Nc1cccc([S@@](C)(=N)=O)c1 [Example 11]", "Measurement": "100 to 200 nM"}

* * *

# Target desc: human Nav1.8 (Homo sapiens, UniProt Q9Y5Y9)
# Experimental details: SyncroPatch384PE assay (automated patch clamp)
# Assay type: cell-based
# Test conditions: inactivated state block (P2 measurement), human Nav1.8/b3 CHO cells, read-out: P2 IC50
pIC50: −log10 of the molar value.
Measured pIC50 accompanies every entry in the list below.
Readout name: pIC50

{"Compound": "Cc1c(-c2cnn(C)c2)cnc(N2CCCC(F)(F)CC2)c1C(=O)Nc1cccc([S@@](C)(=O)=NC(=O)[C@@H](C)O)c1 [Example 230]", "Readout name": "pIC50", "Measurement": "7.30 to 8.30"}
{"Compound": "Cc1c(-c2ccc(C#N)cc2)cnc(N2CCCC(F)(F)CC2)c1C(=O)NC12CC(C(N)=O)(C1)C2 [Example 134]", "Readout name": "pIC50", "Measurement": "< 6.70"}
{"Compound": "Cc1nc(N2CCCC(F)(F)CC2)c(C(=O)Nc2cccc(S(=N)(N)=O)c2)cc1C(F)(F)F (stereo not shown) [Example 121]", "Readout name": "pIC50", "Measurement": "≥ 8.30"}
{"Compound": "Cc1c(-c2ccc(F)cn2)cnc(N2CCCC(F)(F)CC2)c1C(=O)Nc1cccc(S(C)(=N)=O)c1 (stereo not shown) [Example 112]", "Readout name": "pIC50", "Measurement": "7.00 to 7.30"}
{"Compound": "Cc1c(-c2cccnc2)cnc(N2CCCC(F)(F)CC2)c1C(=O)Nc1cccc(S(C)(=N)=O)c1 (stereo not shown) [Example 84]", "Readout name": "pIC50", "Measurement": "7.30 to 8.30"}
{"Compound": "Cc1c(C#CCO)cnc(N2CCCC(F)(F)CC2)c1C(=O)Nc1cccc([S@](C)(=N)=O)c1 [Example 123]", "Readout name": "pIC50", "Measurement": "< 6.70"}
{"Compound": "Cc1c(N2CC3(COC3)C2)nnc(N2CCCC(F)(F)CC2)c1C(=O)Nc1cccc([S@](C)(=N)=O)c1 [Example 140]", "Readout name": "pIC50", "Measurement": "< 6.70"}
{"Compound": "Cc1ccsc1-c1nnc(N2CCCCCC2)c(C(=O)Nc2cccc(S(C)(=N)=O)c2)c1C (stereo not shown) [Example 79]", "Readout name": "pIC50", "Measurement": "< 6.70"}
{"Compound": "CNCC(=O)N=[S@](C)(=O)c1cccc(NC(=O)c2c(N3CCCC(F)(F)CC3)ncc(C#CC3CC3)c2C)c1 [Example 64]", "Readout name": "pIC50", "Measurement": "≥ 8.30"}
{"Compound": "Cc1c(C(F)(F)F)nnc(N2CCCC(F)(F)CC2)c1C(=O)Nc1cccc([S@@](C)(=O)=NC(=O)C2(N)CCC2)c1 [Example 234]", "Readout name": "pIC50", "Measurement": "≥ 8.30"}
{"Compound": "Cc1ncc(-c2cnc(N3CCCC(F)(F)CC3)c(C(=O)Nc3cccc([S@](C)(=N)=O)c3)c2C)o1 [Example 178]", "Readout name": "pIC50", "Measurement": "7.30 to 8.30"}
{"Compound": "Cc1nc(N2CCCC(F)(F)CC2)c(C(=O)Nc2cccc([S@@](C)(=N)=O)c2)cc1C(F)(F)F [Example 5]", "Readout name": "pIC50", "Measurement": "≥ 8.30"}
{"Compound": "CNCC(=O)N=[S@](C)(=O)c1cccc(NC(=O)c2c(N3CCCC(F)(F)CC3)ncc(-c3ccc4c(c3)OCCO4)c2C)c1 [Example 48]", "Readout name": "pIC50", "Measurement": "≥ 8.30"}
{"Compound": "Cc1c(Cl)c(C(F)(F)F)nc(N2CCCC(F)(F)CC2)c1C(=O)Nc1cccc([S@@](C)(=N)=O)c1 [Example 108]", "Readout name": "pIC50", "Measurement": "≥ 8.30"}
{"Compound": "Cc1c(-c2ccccc2)cnc(N2CCCC(F)(F)CC2)c1C(=O)Nc1cccc(S(C)(=N)=O)c1 (stereo not shown) [Example 42]", "Readout name": "pIC50", "Measurement": "≥ 8.30"}
{"Compound": "Cc1c(C(F)(F)F)nnc(N2CCCC(F)(F)CC2)c1C(=O)Nc1ccnc(S(=N)(N)=O)c1 (stereo not shown) [Example 119]", "Readout name": "pIC50", "Measurement": "7.30 to 8.30"}
{"Compound": "CC#Cc1cnc(N2CCCC(F)(F)CC2)c(C(=O)Nc2cccc([S@](C)(=N)=O)c2)c1C [Example 127]", "Readout name": "pIC50", "Measurement": "≥ 8.30"}
{"Compound": "CNS(=N)(=O)c1cc(NC(=O)c2cc(C(F)(F)F)c(C)nc2N2CCCC(F)(F)CC2)ccn1 (stereo not shown) [Example 107]", "Readout name": "pIC50", "Measurement": "≥ 8.30"}
{"Compound": "Cc1c(Cl)c(C#N)nc(N2CCCC(F)(F)CC2)c1C(=O)Nc1cccc([S@](C)(=N)=O)c1 [Example 171]", "Readout name": "pIC50", "Measurement": "≥ 8.30"}
{"Compound": "Cc1noc(C)c1-c1cnc(N2CCCC(F)(F)CC2)c(C(=O)Nc2cccc([S@](C)(=N)=O)c2)c1C [Example 156]", "Readout name": "pIC50", "Measurement": "< 6.70"}
{"Compound": "Cc1c(C(F)(F)F)nnc(N2CCCC(F)(F)CC2)c1C(=O)Nc1cccc([S@@](C)(=O)=NC(=O)CO)c1 [Example 232]", "Readout name": "pIC50", "Measurement": "≥ 8.30"}
{"Compound": "Cc1c(-c2cccc(F)c2)cnc(N2CCCC(F)(F)CC2)c1C(=O)Nc1cccc([S@@](C)(=N)=O)c1 [Example 111]", "Readout name": "pIC50", "Measurement": "≥ 8.30"}
{"Compound": "C[S@@](=N)(=O)c1cccc(NC(=O)c2cc(C(F)(F)F)nnc2N2CCCC(F)(F)CC2)c1 [Example 18]", "Readout name": "pIC50", "Measurement": "6.70 to 7.00"}
{"Compound": "CNCC(=O)N=[S@](C)(=O)c1cccc(NC(=O)c2c(N3CCCC(F)(F)CC3)nnc(-c3cnn(C)c3)c2C)c1 [Example 72]", "Readout name": "pIC50", "Measurement": "7.00 to 7.30"}
{"Compound": "Cc1c(C#N)cnc(N2CCCC(F)(F)CC2)c1C(=O)Nc1ccnc([S@](C)(=N)=O)c1 [Example 201]", "Readout name": "pIC50", "Measurement": "7.30 to 8.30"}
{"Compound": "Cc1c(C(=O)Nc2cccc([S@@](C)(=O)=NC(=O)CN)c2)c(N2CCCC(F)(F)CC2)nc(C(F)(F)F)c1-c1cnn(C)c1 [Example 184]", "Readout name": "pIC50", "Measurement": "≥ 8.30"}
{"Compound": "Cc1c(-c2cnn(C)c2)cnc(N2CCCC(F)(F)CC2)c1C(=O)Nc1ccc(F)c([S@](C)(=N)=O)c1 [Example 214]", "Readout name": "pIC50", "Measurement": "6.70 to 7.00"}
{"Compound": "Cc1c(-c2ccccc2)cnc(N2CCCC(F)(F)CC2)c1C(=O)Nc1cccc([S@@](C)(=N)=O)c1 [Example 103]", "Readout name": "pIC50", "Measurement": "≥ 8.30"}
